Hey, just so you know, these numbers are from patent US20250009742A1.

Assay: Cell viability assay (EZ-Cytox), cytotoxicity
Format: cell-based
Details: human, HepAD38 cells, @100 μM, read-out: Cytotoxicity % Livability (@100 μM)
Parameter: viability at 65 h, 100 µM. Scope: all listed entries.
Number only, in %; omit the unit.

Previously resolved entries follow.
compound="COc1ccc(N(Cc2nn(C)c3c2COCC3)C(=O)Nc2ccc(F)c(Cl)c2)cc1 [Example 39]" measurementtype="viability at 65 h, 100 µM" unitinfo=% resultnumber=96
compound="COc1ncc(N(Cc2cc(C(F)(F)F)[nH]n2)C(=O)Nc2cc(N(C)C)c(F)c(C#N)n2)cn1 [Example 164]" measurementtype="viability at 65 h, 100 µM" unitinfo=% resultnumber=100
compound="COc1cncc(N(Cc2cc(C(F)F)[nH]n2)C(=O)Nc2ccc(F)c(Cl)c2)c1 [Example 77]" measurementtype="viability at 65 h, 100 µM" unitinfo=% resultnumber=86.7

# context switch: different compound, same viability at 65 h, 100 µM
The compound identified as COc1cc(C)c(N(Cc2cc(C(F)(F)F)[nH]n2)C(=O)Nc2ccc(F)c(Cl)c2)c(C)c1 [Example 29] registered its viability at 65 h, 100 µM at 6.9

---

Parameter: pIC50. Scope: all listed entries.
Test system: intracellular HBV DNA
Experiment: Real-time PCR for intracellular HBV DNA in HepAD38 cells
Type: cell-based
Conditions: Hepatitis B virus, HePAD38, 65 h, 65 hours treatment
Friendly reminder that pIC50 comes from taking -log10 of the concentration in mol/L.

Previously resolved entries follow.
compoundstring=COc1ncc(N(Cc2cc(C(F)(F)F)[nH]n2)C(=O)Nc2cc(F)c(F)c(Cl)n2)cn1 resultnumber=6.68
compoundstring=COc1ncc(N(Cc2cc(C(F)(F)F)[nH]n2)C(=O)Nc2ccnc(C#N)c2F)cn1 resultnumber=6.64

The molecule identified as COc1ccc(N(Cc2cc(C)[nH]n2)C(=O)Nc2ccc(F)c(Cl)c2)cn1 registered its pIC50 at 6.59

The molecule identified as COc1ncc(N(Cc2cc(C(F)(F)F)[nH]n2)C(=O)Nc2cc(C#N)c(F)cn2)cn1 registered its pIC50 at 7.13

---

Assay: Cell viability assay (EZ-Cytox), cytotoxicity
Assay type: cell-based
Conditions: human, HepAD38 cells, @100 μM, read-out: Cytotoxicity % Livability (@100 μM)
Parameter: viability at 65 h, 100 µM. Scope: all listed entries.
Remember to follow the number with its unit.

Previously resolved entries follow.
compoundstring=COc1ncc(N(Cc2cc(C#N)[nH]n2)C(=O)Nc2ccc(C#N)c(Cl)c2)cn1 result=105%
compoundstring=COc1ccc(N(Cc2cc(C(F)F)[nH]n2)C(=O)Nc2ccc(F)c(C(F)F)c2)nn1 result=100%
compoundstring=O=C(Nc1ccc(F)c(Cl)c1)N(Cc1n[nH]c2c1CCCC2)c1cc[nH]c(=O)c1 result=84%
compoundstring=COc1ccc(N(Cc2cc(C(F)(F)F)[nH]n2)C(=O)Nc2ccc(F)c(C(F)F)c2)cn1 result=97.9%
compoundstring=COc1cc(OC)cc(N(Cc2n[nH]c3c2CCCC3)C(=O)Nc2ccc(F)c(Cl)c2)c1 result=3.2%
compoundstring=COc1ncc(N(Cc2cc(C(F)(F)F)[nH]n2)C(=O)Nc2cccc(C#N)c2)cn1 result=6.3%
compoundstring=COc1ncc(N(Cc2cc(C(F)(F)F)[nH]n2)C(=O)Nc2cccc(C#N)n2)cn1 result=99.4%

# context switch: different compound, same viability at 65 h, 100 µM
The compound identified as COc1cc(N(Cc2n[nH]c3c2COC3)C(=O)Nc2ccc(F)c(Cl)c2)ccn1 registered its viability at 65 h, 100 µM at 98%

---

Test: Cell viability assay (EZ-Cytox), cytotoxicity
Type: cell-based
Settings: human, HepAD38 cells
measurementType: CC50 at 65 h

Previously resolved entries follow.
compoundstring=COc1ccc(N(Cc2cc(OC)[nH]n2)C(=O)Nc2ccc(F)c(Cl)c2)cn1 measurementtype="CC50 at 65 h" result="> 100 µM"
compoundstring=Cn1ccc(N(Cc2n[nH]c3c2CCCO3)C(=O)Nc2ccc(F)c(Cl)c2)n1 measurementtype="CC50 at 65 h" result="> 100 µM"
compoundstring=O=C(Nc1ccc(F)c(Cl)c1)N(Cc1n[nH]c2c1CCC2)c1ccc(O)cc1 measurementtype="CC50 at 65 h" result="54.5 µM"

The compound identified as COc1cc(N(Cc2cc(C(F)(F)F)[nH]n2)C(=O)Nc2ccc(F)c(Cl)c2)cnc1C#N registered its CC50 at 65 h at < 50 µM

---

Test system: intracellular HBV DNA
Assay: Real-time PCR for intracellular HBV DNA in HepAD38 cells
Assay type: cell-based
Details: Hepatitis B virus, HePAD38, 65 h, 65 hours treatment
measurementType: IC50 (µM)
Number only, in µM; omit the unit.

Previously resolved entries follow.
compoundstring=COc1ncc(N(Cc2cc(C#N)[nH]n2)C(=O)Nc2ccc(F)c(C(F)(F)F)c2)cn1 measurementtype=IC50 unitinfo=µM resultnumber=0.02
compoundstring=COc1ncc(N(Cc2cc(C(F)F)[nH]n2)C(=O)Nc2cc(C)c(F)c(Cl)c2)cn1 measurementtype=IC50 unitinfo=µM resultnumber=0.04
compoundstring=COc1ncc(N(Cc2n[nH]c(C(F)(F)F)c2CCO)C(=O)Nc2ccc(F)c(C(F)F)c2)cn1 measurementtype=IC50 unitinfo=µM resultnumber=0.18

# context switch: different compound, same IC50
The compound identified as COc1ncc(N(Cc2cc(C#N)[nH]n2)C(=O)Nc2cc(F)c(F)c(F)c2)cn1 registered its IC50 at 0.07

---

Parameter: CC50 at 65 h. Scope: all listed entries.
Experiment: Cell viability assay (EZ-Cytox), cytotoxicity
Type: cell-based
Settings: human, HepAD38 cells

Previously resolved entries follow.
compound="COc1ccc(N(Cc2n[nH]c3c2CCC3)C(=O)Nc2ccc(F)c(Cl)c2)cn1 [Example 41]" result="> 100 µM"
compound="COc1ccc(N(Cc2n[nH]c3c2CCCC3)C(=O)Nc2ccc(F)c(Cl)c2)cc1 [Example 32]" result="81.4 µM"
compound="N#Cc1cc(N(Cc2n[nH]c3c2CCOC3)C(=O)Nc2ccc(F)c(Cl)c2)ccn1 [Example 128]" result="> 100 µM"
compound="COc1ccc(N(Cc2n[nH]cc2C)C(=O)Nc2ccc(F)c(Cl)c2)cn1 [Example 56]" result="> 100 µM"
compound="N#Cc1ccc(N(Cc2cc(C(F)(F)F)[nH]n2)C(=O)Nc2ccc(F)c(Cl)c2)cn1 [Example 130]" result="> 100 µM"

The compound identified as N#Cc1cncc(N(Cc2n[nH]c3c2COCC3)C(=O)Nc2ccc(F)c(Cl)c2)c1 [Example 129] registered its CC50 at 65 h at > 100 µM

The compound identified as COc1ncc(N(Cc2cc(C(F)(F)F)[nH]n2)C(=O)Nc2cc(C(F)F)c(F)cn2)cn1 [Example 192] registered its CC50 at 65 h at > 100 µM

The compound identified as COC12CC(N(Cc3cc(C(F)(F)F)[nH]n3)C(=O)Nc3ccc(F)c(Cl)c3)(C1)C2 [Example 105] registered its CC50 at 65 h at 55.8 µM

The compound identified as CCOC=Cc1c(CN(C(=O)Nc2ccc(F)c(Cl)c2)c2ccc(OC)nc2)n[nH]c1C(F)(F)F [Example 83] registered its CC50 at 65 h at > 100 µM

The compound identified as COc1ncc(N(Cc2cc(C(F)(F)F)[nH]n2)C(=O)Nc2cccc(C#N)c2)cn1 [Example 144] registered its CC50 at 65 h at 59.9 µM

The compound identified as COc1ccc(N(Cc2nn(CCOC3CCCCO3)c3c2CCC3)C(=O)Nc2ccc(F)c(Cl)c2)cn1 (stereo not shown) [Example 66] registered its CC50 at 65 h at 81.9 µM

---

Assay: Cell viability assay (EZ-Cytox), cytotoxicity
Assay type: cell-based
Conditions: human, HepAD38 cells
measurementType: CC50 at 65 h

compound="COc1ccc(N(Cc2n[nH]c3c2CSCC3)C(=O)Nc2ccc(F)c(Cl)c2)cn1 [Example 45]" result="> 50 µM"
compound="CNS(=O)(=O)c1ccc(N(Cc2n[nH]c3c2CCOC3)C(=O)Nc2ccc(F)c(Cl)c2)cc1 [Example 23]" result="> 100 µM"
compound="COc1ccc(N(Cc2n[nH]c3c2COCC3)C(=O)Nc2ccc(F)c(Cl)c2)cc1 [Example 38]" result="> 100 µM"

# context switch: different compound, same CC50 at 65 h
The compound identified as COc1ncc(N(Cc2cc(C(F)(F)F)[nH]n2)C(=O)Nc2nccc(-n3ccnc3)c2F)cn1 [Example 3] registered its CC50 at 65 h at > 100 µM

---

System: intracellular HBV DNA
Assay: Real-time PCR for intracellular HBV DNA in HepAD38 cells
Type: cell-based
Conditions: Hepatitis B virus, HePAD38, 65 h, 65 hours treatment
Parameter: IC50. Scope: all listed entries.
Number only, in nM; omit the unit.

compoundstring=COc1ncc(N(Cc2cc(C(F)F)[nH]n2)C(=O)Nc2ccc(F)c(C#N)c2)cn1 assaysystem="intracellular HBV DNA" resultnumber=35

# context switch: different compound, same IC50
The compound identified as COc1ncc(N(Cc2cc(C(F)(F)F)[nH]n2)C(=O)Nc2ccc(C#N)c(C#N)c2)cn1 registered its IC50 at 190
